System: Sam68 (KHDRBS1)
Experiment summary: Sam68 small-molecule binders, primary screen, biochemical, small-molecule microarray, 635 nm fluorescence (AID 1125);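 further: score merges 667 nm channel intensity with signal to noise over triplicate slides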
Condition context: small-molecule microarray binding, higher = more signal
Endpoint: composite z-score
Enter the number alone.

Examples from the recorded data:
Chem smiles: CC(C)CON=C1C[C@@H](O)[C@@H](O)[C@@H]2[C@@H]3C(=O)N(c4ccc(F)cc4F)C(=O)[C@@H]3CC[C@@H]12
Assayed target: Sam68 (KHDRBS1)
composite z-score: 0.693
//
Chem smiles: CCOC(=O)NN=C1C[C@@H](O)[C@@H](O)[C@@H]2[C@@H]3C(=O)N(C[C@@H]4CCCO4)C(=O)[C@@H]3CC[C@H]12
Assayed target: Sam68 (KHDRBS1)
composite z-score: 0.31
//
Chem smiles: O=C(NN=C1C[C@@H](O)[C@@H](O)[C@@H]2[C@@H]3C(=O)N(Cc4ccccc4)C(=O)[C@@H]3CC[C@H]12)OCc1ccccc1
Assayed target: Sam68 (KHDRBS1)
composite z-score: -0.0039
//
Chem smiles: CCN1C(=O)[C@H]2[C@@H]3C(=CC[C@H]2C1=O)C(=O)[C@H]1O[C@H]1[C@H]3O
Assayed target: Sam68 (KHDRBS1)
composite z-score: 0.657

// query Please list composite z-score recorded for the compound CCN1C(=O)[C@H]2[C@H]3[C@H](O)[C@H](O)CC(=NNC(=O)OCc4ccccc4)[C@@H]3CC[C@H]2C1=O
// result -0.327

// query Please list composite z-score recorded for the compound CCOC(=O)CCN1C(=O)[C@H]2[C@@H]3C(=CC[C@H]2C1=O)C(=O)[C@H]1O[C@H]1[C@H]3O
// result -0.728

// query Please list composite z-score recorded for the compound Cc1ccc(S(=O)(=O)N[C@@H]2COC(=O)CC=C[C@@H](C)[C@H](NS(=O)(=O)c3ccc(C)cc3)COC(=O)[C@H](C)NC(=O)CC=C[C@H]2C)cc1
// result -1.17

// query Please list composite z-score recorded for the compound C[C@@H]1CC[C@H]2C(=O)N3[C@@H](CC[C@@H](C)[C@@H]3c3ccc(Br)cc3)C(=O)N2[C@H]1c1ccc(Br)cc1
// result 0.31

---

Assayed target: Dihydroorotate dehydrogenase (quinone), mitochondrial (Plasmodium falciparum (isolate 3D7)) (UniProt Q08210)
Sequence (Q08210 whole entry, looked up): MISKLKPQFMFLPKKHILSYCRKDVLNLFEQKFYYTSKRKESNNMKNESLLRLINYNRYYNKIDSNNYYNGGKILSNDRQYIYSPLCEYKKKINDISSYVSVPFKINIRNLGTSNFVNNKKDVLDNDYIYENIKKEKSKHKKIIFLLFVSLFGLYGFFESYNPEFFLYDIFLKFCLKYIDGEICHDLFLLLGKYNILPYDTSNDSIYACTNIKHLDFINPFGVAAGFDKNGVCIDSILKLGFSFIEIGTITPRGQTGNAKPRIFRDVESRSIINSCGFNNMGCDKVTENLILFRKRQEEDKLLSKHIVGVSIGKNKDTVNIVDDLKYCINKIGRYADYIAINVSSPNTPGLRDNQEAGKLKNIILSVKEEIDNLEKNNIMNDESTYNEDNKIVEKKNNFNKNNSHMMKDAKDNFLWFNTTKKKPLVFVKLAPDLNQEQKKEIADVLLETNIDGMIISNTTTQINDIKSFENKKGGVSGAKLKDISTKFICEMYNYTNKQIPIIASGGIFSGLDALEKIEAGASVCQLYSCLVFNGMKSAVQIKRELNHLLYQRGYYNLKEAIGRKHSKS
Experiment summary: PfDHODH enzyme inhibitors, primary screen, biochemical, C-terminal His tag, absorbance 600 nm (AID 1175);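 further: recombinant parasite enzyme with a five histidine tag at its C terminus; test concentration not given here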
Condition context: DCIP absorbance 600 nm, higher = more signal, called active from +8 up or from −8 down
Assign 1 whenever composite z-score does not fall below -0.4; assign 0 whenever it does.

Sample answers from the record:
Compound: C=CC[C@@H]1C=C[C@H](Oc2ccc(C)cc2)[C@@H](COC(=O)NCc2cccc3ccccc23)O1
Assigned class: 1

Compound: COC(=O)CC=C[C@@H](C)[C@@H](C=NOC[C@@H](C)[C@H](OCc1ccccc1)C(C)C)NS(=O)(=O)c1ccc(C)cc1
Assigned class: 1

Compound: COC(=O)[C@@H]1CC[C@H](C)[C@@H](c2ccc(Br)cc2)N1C[C@H](O)CN=[N+]=[N-]
Assigned class: 1

Compound: COc1ccc(COC(=O)NN=C2C[C@@H](O)[C@@H](O)[C@@H]3[C@@H]4C(=O)N(C[C@@H]5CCCO5)C(=O)[C@@H]4CC[C@@H]23)cc1
Assigned class: 1

Compound: C#CCCCON=C1C[C@@H](O)[C@@H](O)[C@@H]2[C@@H]3C(=O)N(C4CCCCC4)C(=O)[C@@H]3CC[C@@H]12
Assigned class: 0

Compound: CC(=O)OC[C@H]1O[C@H](CC=NO[C@@H](C)c2cn([C@H](CO)Cc3ccccc3)nn2)C=C[C@@H]1OC(C)=O
Assigned class: 0

// query Item COc1ccc(COC(=O)NN=C2C[C@@H](O)[C@@H](O)[C@@H]3[C@@H]4C(=O)N(c5cccc(Oc6ccccc6)c5)C(=O)[C@@H]4CC[C@H]23)cc1 with composite z-score of -0.4 or above?
// result 0

// query Item CCCC[C@H]1CN2[C@@H](CC[C@@H](C)[C@@H]2c2ccc(Br)cc2)C(=O)O1 with composite z-score of -0.4 or above?
// result 1

// query Item CC(C)(C)N1C(=O)[C@H]2[C@@H]3C(=CC[C@H]2C1=O)C(=O)[C@H]1O[C@H]1[C@H]3O with composite z-score of -0.4 or above?
// result 0

// query Item O=C1CCCC=C1C(O)c1ccc([N+](=O)[O-])cc1 (stereo not given) with composite z-score of -0.4 or above?
// result 0

---

Experiment summary: small-molecule binders of probe aNOTCH3, primary screen, biochemical, small-molecule microarray, 635/667 nm fluorescence (AID 1120);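 further: probe is a biotin-tagged antibody raised against NOTCH3 rather than NOTCH3 protein; score merges spot fluorescence near 667 nm with spot signal to noise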
Condition context: higher = more signal
A collection of compounds and their measured composite z-score
Enter the number alone.

Chem smiles: COC(=O)CC=C[C@@H](C)[C@@H](C=NOC[C@@H](C)[C@H](OCc1ccccc1)C(C)C)NS(=O)(=O)c1ccc(C)cc1
composite z-score: -0.161
--
Chem smiles: C=CC[C@@H]1C=C[C@H](Oc2ccc(C)cc2)[C@@H](COC(=O)NCc2cccc3ccccc23)O1
composite z-score: -0.0328
--
Chem smiles: COC(=O)[C@@H]1CC[C@H](C)[C@@H](c2ccc(C)cc2)N1C(=O)c1ccc(C=NOC[C@@H](O)[C@H]2O[C@@H]3OC(C)(C)O[C@@H]3[C@H]2O)cc1
composite z-score: -0.0014

# next compound below
// query Please list composite z-score recorded for the compound CCN1C(=O)[C@H]2[C@H]3[C@H](O)[C@H](O)CC(=NOC[C@@H](O)[C@H]4O[C@@H]5OC(C)(C)O[C@@H]5[C@H]4O)[C@@H]3CC[C@H]2C1=O
// result -0.299

---

Experiment summary: binders of probe aFGF10 on microarray, primary screen, stem cell growth factor project, biochemical, small-molecule microarray, fluorescence 635/667 (AID 1071);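 further: score merges 667 nm spot intensity and signal to noise from triplicate slides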
Condition context: higher = more signal
Assign TRUE whenever composite z-score does not fall below 0.2; assign FALSE whenever it does.

Sample answers from the record:
Compound: C[C@@H]1CC[C@@H](C(=O)O)N[C@H]1c1cccc(N2CCOCC2)c1
Assigned class: TRUE

Compound: CC=CC1=C(CO)[C@H](O)[C@H]2O[C@H]2[C@@H]1O
Assigned class: FALSE

// query Item CCOC(=O)[C@H](CC(C)C)NC(=O)CCC1CC(OC(=O)NCc2ccc3c(c2)OCO3)CC2(CCCC(COC(=O)NCCc3ccccc3OC)O2)O1 (some centres not stated) with composite z-score of 0.2 or above?
// result TRUE

// query Item CC(=O)OC[C@H]1O[C@H](CC=NOC(C)CN2CCCCc3nc(C)c(C)cc32)C=C[C@@H]1OC(C)=O (some centres not stated) with composite z-score of 0.2 or above?
// result TRUE

// query Item C[C@]12CCC3c4ccc(OCC5CO5)cc4CCC3C1CC[C@@H]2O (some centres not stated) with composite z-score of 0.2 or above?
// result TRUE

// query Item O=C1[C@H]2[C@H]3[C@H](O)[C@H](O)CC(=NO[C@@H]4O[C@H](CO)[C@@H](O)[C@H](O)[C@H]4O)[C@@H]3CC[C@H]2C(=O)N1c1cccc(Oc2ccccc2)c1 with composite z-score of 0.2 or above?
// result TRUE

// query Item CCOC(=O)[C@H](CC(C)C)NC(=O)CCC1CC(OC(=O)NCc2ccc3c(c2)OCO3)CC2(CCCC(COC(=O)NCCC(C)C)O2)O1 (some centres not stated) with composite z-score of 0.2 or above?
// result FALSE

// query Item CC(C)[C@H](NC(=O)OC(C)(C)C)[C@@H](O)CC(=O)C(C)(C)C with composite z-score of 0.2 or above?
// result TRUE

// query Item CC(=O)OC[C@H]1O[C@H](C#CCC2CCCCC2)C=C[C@@H]1OC(C)=O with composite z-score of 0.2 or above?
// result TRUE

// query Item COc1ccc(OC[C@H]2CN3[C@@H](CC[C@@H](C)[C@@H]3c3ccc(Br)cc3)C(=O)O2)cc1 with composite z-score of 0.2 or above?
// result TRUE

// query Item CCOC(=O)[C@H](CC(C)C)NC(=O)CCC1CC(OC(=O)NCc2ccc3c(c2)OCO3)CC2(CCCC(COC(=O)NCc3ccccc3)O2)O1 (some centres not stated) with composite z-score of 0.2 or above?
// result TRUE

// query Item O=C(NN=C1C[C@@H](O)[C@@H](O)[C@@H]2[C@@H]3C(=O)N(Cc4ccc5c(c4)OCO5)C(=O)[C@@H]3CC[C@@H]12)OCc1ccccc1 with composite z-score of 0.2 or above?
// result FALSE

// query Item O=C(NN=C1C[C@@H](O)[C@@H](O)[C@@H]2[C@@H]3C(=O)N(Cc4ccccc4)C(=O)[C@@H]3CC[C@H]12)OCc1ccccc1 with composite z-score of 0.2 or above?
// result TRUE

// query Item CO[C@H]1COC(=O)CCC[C@H](C)[C@H](OC)COC(=O)CC=C[C@@H]1C with composite z-score of 0.2 or above?
// result FALSE

Value source: PubChem BioAssay
